Field: Residual activity, ActR (%) of collagenase. Provide a value for each of the molecules that follow.
- System: Clostridium histolyticum collagenase (type IA)
- EXPERIMENT_NOTES: Anti-collagenase activity, FALGPA degradation followed by UHPLC
- Format: biochemical
- DETAILS: 25 μM; 30 minutes
Answer in %, number only, no unit symbol.

## Input Name the recorded Residual activity, ActR (%) of collagenase for C[C@@H]1CC[C@]2(C(=O)O)CC[C@]3(C)C(=CC[C@@H]4[C@@]5(C)C[C@@H](O)[C@H](O)C(C)(C)[C@@H]5CC[C@]43C)[C@@H]2[C@]1(C)O [TA, tormentic acid] .
## Output 98

## Input Query COc1cc(/C=C/C(=O)OC2C(O)CC3(C)C(CCC4(C)C3CC=C3C5C(C(=O)O)(CCC(C)C5(C)O)CCC34C)C2(C)C)ccc1O (centres unmarked) [FDTA-I] next
## Output 24

## Input Query COc1cc(/C=C/C(=O)O)ccc1O [Ferulic acid, ferulic acid] next
## Output 96

## Input Query COc1cc(/C=C/C(=O)OC2C(O)CC3(C)C(CCC4(C)C3CC=C3C5C(C)C(C)CCC5(C(=O)O)CCC34C)C2(C)C)ccc1O (centres unmarked) [FDTA-II] next
## Output 64

## Input Query C[C@@H]1CC[C@]2(C(=O)O[C@@H]3O[C@H](CO)[C@@H](O)[C@H](O)[C@H]3O)CC[C@]3(C)C(=CC[C@@H]4[C@@]5(C)CC[C@H](O[C@@H]6OC[C@H](O)[C@H](O)[C@H]6O)C(C)(C)[C@@H]5CC[C@]43C)[C@@H]2[C@]1(C)O [Ziyuglycoside I] next
## Output 106
